Measured values drawn from the supplement of paper PMC10567573 for this set.

Examples of variants with documented protein stability index follow.
B1: STK38L (parent)
chain: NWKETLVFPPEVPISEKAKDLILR

# Variants of: B1
# Run Description: protein stability index of a GFP-peptide fusion (GPS, HEK-293T) (PSI 1-6); higher = more stable;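 also: lentivirally expressed fusions sorted by FACS into six bins by GFP to DsRed ratio, PSI derived from sequencing read proportions per bin multiplied by bin number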
# Applied Conditions: c terminus: a fixed tail appended
Just the number, please, no unit after it.

Below, 5 variants whose answers are already recorded.
mutation_notation=R24V value=1.91
mutation_notation=A18W value=2.65
mutation_notation=F8W value=3.5
mutation_notation=R24K value=3.6
mutation_notation=K17C value=2.81

Q. Dear colleague, I am looking for the recorded protein stability index of the following variant: D20F
A. 2.52
